- target_under_test: THOC4 (ALYREF) (UniProt Q86V81 Q86V81:2-257)
- assay_procedure: SPR
property_label: binding signal

{"columns": ["binder", "value_reported"],
 "data": [
  ["ACAUGGUUCCCCGACAGUGUUA (ssRNA, 2'-OMe all, full PS) [DKLS687118 (SEQ 35)]", "0.72 normalized Rmax"],
  ["GGCAGCAGUACGACGG (ssRNA, 2'-OMe all, full PS) [LSA_ATG 5' truncation 16 nt]", "0.49 normalized Rmax"],
  ["CCUGUCAGCCGCACUUGCCU (ssRNA, 2'-OMe all, full PS) [DKLS463357 (SEQ 59)]", "0.39 normalized Rmax"],
  ["GCUCCAGCAUCUGCUGCUUC (ssRNA, 2'-OMe all, full PS) [DKLS491049 (SEQ 32)]", "0.26 normalized Rmax"],
  ["UCUCCCAGCGUGCGCCAU (ssRNA, 2'-OMe all, full PS) [DKLS696616 (SEQ 9)]", "1.12 normalized Rmax"],
  ["CAGAGGCAGCAGUACGAC (ssRNA, 2'-OMe all, full PS) [LSA_ATG 3' truncation 18 nt]", "0.71 normalized Rmax"],
  ["GUGCAUGGAAUCACGGAGU (ssRNA, 2'-OMe all, full PS) [Open_A 3' truncation 19 nt]", "0.47 normalized Rmax"],
  ["UCUUAUGUUUCCGAACCGUU (ssRNA, 2'-OMe all, full PS) [DKLS370480 (SEQ 25)]", "0.34 normalized Rmax"]
]}
